Origin of measurements: patent US10849847B2

assay: Phase I PK study in adults with acne: topical minocycline foam 4% for 21 days vs single oral dose of minocycline (FX2014-03); format: in vivo, human; settings: both sexes, human, plasma, po, 1 mg/kg, Period 1, single oral dose ~1 mg/kg minocycline, Day 1-5; read-out: AUC0-inf, Geometric Mean
readout.name: AUC(0-inf)
Kindly write the number and append the unit.

Looking up CN(C)c1ccc(O)c2c1C[C@H]1C[C@H]3[C@H](N(C)C)C(O)=C(C(N)=O)C(=O)[C@@]3(O)C(O)=C1C2=O [Solodyn] , I found its AUC(0-inf) recorded as 15100 ng·h/mL

* * *

experiment: Phase I PK study in adults with acne: topical minocycline foam 4% for 21 days vs single oral dose of minocycline (FX2014-03); format: in vivo, human; conditions: both sexes, human, plasma, po, 1 mg/kg, Period 1, single oral dose ~1 mg/kg minocycline, Day 1-5; read-out: T1/2, Harmonic Mean (converted)
readout.name: half-life (h)
Express the result in h but write the number alone.

# half-life of CN(C)c1ccc(O)c2c1C[C@H]1C[C@H]3[C@H](N(C)C)C(O)=C(C(N)=O)C(=O)[C@@]3(O)C(O)=C1C2=O = 15.8

* * *

test: Phase I PK study in adults with acne: topical minocycline foam 4% for 21 days vs single oral dose of minocycline (FX2014-03); type: in vivo, human; conditions: both sexes, human, plasma, po, 1 mg/kg, Period 1, single oral dose ~1 mg/kg minocycline, Day 1-5; read-out: AUC0-tldc, Geometric Mean
readout.name: AUC

Notebook: CN(C)c1ccc(O)c2c1C[C@H]1C[C@H]3[C@H](N(C)C)C(O)=C(C(N)=O)C(=O)[C@@]3(O)C(O)=C1C2=O , AUC read as 14800 ng·h/mL

* * *

test: Phase I PK study in adults with acne: topical minocycline foam 4% for 21 days vs single oral dose of minocycline (FX2014-03); format: in vivo, human; conditions: both sexes, human, plasma, po, 1 mg/kg, Period 1, single oral dose ~1 mg/kg minocycline, Day 1-5; read-out: Tmax, Mean
readout.name: Tmax (h)
API: value field is a number in h; no unit string.

Entry CN(C)c1ccc(O)c2c1C[C@H]1C[C@H]3[C@H](N(C)C)C(O)=C(C(N)=O)C(=O)[C@@]3(O)C(O)=C1C2=O [Solodyn] , Tmax reported as 2.7

* * *

assay: Phase I PK study in adults with acne: topical minocycline foam 4% for 21 days vs single oral dose of minocycline (FX2014-03); assay type: in vivo, human; conditions: both sexes, human, plasma, po, 1 mg/kg, Period 1, single oral dose ~1 mg/kg minocycline, Day 1-5; read-out: T1/2, Mean (converted)
readout.name: half-life
Form field: result (number plus unit)

Looking up CN(C)c1ccc(O)c2c1C[C@H]1C[C@H]3[C@H](N(C)C)C(O)=C(C(N)=O)C(=O)[C@@]3(O)C(O)=C1C2=O [Solodyn] , I see its half-life listed as 16 h

* * *

assay: Phase I PK study in adults with acne: topical minocycline foam 4% for 21 days vs single oral dose of minocycline (FX2014-03); format: in vivo, human; details: both sexes, human, plasma, po, 1 mg/kg, Period 1, single oral dose ~1 mg/kg minocycline, Day 1-5; read-out: AUC0-inf, Median
readout.name: AUC(0-inf)
The reply should consist of the numeric value with the unit placed after it.

Entry CN(C)c1ccc(O)c2c1C[C@H]1C[C@H]3[C@H](N(C)C)C(O)=C(C(N)=O)C(=O)[C@@]3(O)C(O)=C1C2=O [Solodyn] ; AUC(0-inf) = 15600 ng·h/mL

* * *

experiment: Phase I PK study in adults with acne: topical minocycline foam 4% for 21 days vs single oral dose of minocycline (FX2014-03); format: in vivo, human; details: both sexes, human, plasma, po, 1 mg/kg, Period 1, single oral dose ~1 mg/kg minocycline, Day 1-5; read-out: T1/2, Median (converted)
readout.name: half-life (min)
Please state the figure in min; there is no need to write the unit.

Looking up CN(C)c1ccc(O)c2c1C[C@H]1C[C@H]3[C@H](N(C)C)C(O)=C(C(N)=O)C(=O)[C@@]3(O)C(O)=C1C2=O [Solodyn] , I see its half-life listed as 954

* * *

test: Phase I PK study in adults with acne: topical minocycline foam 4% for 21 days vs single oral dose of minocycline (FX2014-03); assay type: in vivo, human; settings: both sexes, human, plasma, po, 1 mg/kg, Period 1, single oral dose ~1 mg/kg minocycline, Day 1-5; read-out: Tmax, Median
readout.name: Tmax (h)
# value in h; strip the unit string

Tmax measured on CN(C)c1ccc(O)c2c1C[C@H]1C[C@H]3[C@H](N(C)C)C(O)=C(C(N)=O)C(=O)[C@@]3(O)C(O)=C1C2=O = 3

* * *

Assay: Phase I PK study in adults with acne: topical minocycline foam 4% for 21 days vs single oral dose of minocycline (FX2014-03)
Assay type: in vivo, human
Details: both sexes, human, plasma, po, 1 mg/kg, Period 1, single oral dose ~1 mg/kg minocycline, Day 1-5; read-out: AUC0-inf, Mean
Protocol: Each application was approximately 4 g (a maximal-use dose). […] On the day of initial dosing (Day 1), subjects checked into the clinic where they were confined until 1 hour after study drug was administered. […] Actual sample collection times were used for the purpose of calculating pharmacokinetic parameters. […] Geometric mean was calculated for Cmax, AUC0-tldc, AUC0-inf, and AUC0-tau, and the harmonic mean was calculated for t1/2. […]
readout.name: AUC(0-inf) (ng·h/mL)
Numeric answer only, unit ng·h/mL assumed.

// sample CN(C)c1ccc(O)c2c1C[C@H]1C[C@H]3[C@H](N(C)C)C(O)=C(C(N)=O)C(=O)[C@@]3(O)C(O)=C1C2=O [Solodyn] , its AUC(0-inf) was 15500

* * *

conditions: tested after the storage for up to 3 weeks
readout.name: Compatibility with Minocycline HCl

# molecule, Compatibility with Minocycline HCl
rows = [
    ("OCCCCO", "No"),
    ("CCCCCCCC/C=C\\CCCCCCCCO", "Yes"),
    ("CCCCCCCCCCC(CO)CCCCCCCC (stereo not shown)", "Yes"),
    ("CCO", "No"),
    ("CC(C)OC(=O)CCCCC(=O)OC(C)C [diisopropyl adipate]", "Yes"),
    ("OCC(O)CO", "No"),
    ("CC(O)CO (stereo not shown)", "No"),
    ("CCCCCCCCCCCCCCO", "Yes"),
    ("CO[C@H]1CO[C@H]2[C@@H]1OC[C@H]2OC [Dimethyl Isosorbide]", "No"),
    ("CCCCCCCCCCCCCCCCCCO", "Yes"),
]

For CC(C)CCCCCCCCCCCCCCC(=O)O the molecule record lists Compatibility with Minocycline HCl as No

Compatibility with Minocycline HCl reported for this molecule C[Si]1(C)O[Si](C)(C)O[Si](C)(C)O[Si](C)(C)O[Si](C)(C)O1 : Yes

For this molecule ( CC(O)CC(C)(C)O (stereo not shown) ), measured Compatibility with Minocycline HCl is No

* * *

assay: Phase I PK study in adults with acne: topical minocycline foam 4% for 21 days vs single oral dose of minocycline (FX2014-03); format: in vivo, human; settings: both sexes, human, plasma, po, 1 mg/kg, Period 1, single oral dose ~1 mg/kg minocycline, Day 1-5; read-out: Cmax, Median
readout.name: Cmax (ng/mL)
# value in ng/mL; strip the unit string

Memo: CN(C)c1ccc(O)c2c1C[C@H]1C[C@H]3[C@H](N(C)C)C(O)=C(C(N)=O)C(=O)[C@@]3(O)C(O)=C1C2=O , reported Cmax: 801

* * *

test: Doxycycline Hyclate Compatibility Test; type: physicochemical; details: tested after the storage for up to 3 weeks
readout.name: Compatibility with Doxycycline Hyclate

# compound, Compatibility with Doxycycline Hyclate
measured = [
    ("CCCCCCCCCCC(CO)CCCCCCCC (stereo not drawn) [Octyl dodecanol]", "No"),
    ("CCCCCCCCCCCCCCCCCCO [Stearyl alcohol]", "Yes"),
    ("CO[C@H]1CO[C@H]2[C@@H]1OC[C@H]2OC [Dimethyl Isosorbide]", "No"),
    ("CC(C)OC(=O)CCCCC(=O)OC(C)C [diisopropyl adipate]", "Yes"),
    ("OCCCCO [Butylene Glycol]", "No"),
]

# ---- query compound ----
Compatibility with Doxycycline Hyclate in this record for CCO [Ethanol] : Yes

* * *

test: Doxycycline Hyclate Compatibility Test; format: physicochemical; details: tested after the storage for up to 3 weeks
readout.name: Compatibility with Doxycycline Hyclate

Use the examples below as a reference point.
# compound, Compatibility with Doxycycline Hyclate
rows = [
    ("CCCCCCCCCCCCCCO [Myristyl alcohol]", "Yes"),
    ("OCC(O)CO [Glycerin]", "No"),
    ("CC(O)CO (stereo not drawn) [Propylene glycol]", "No"),
    ("CCCCCCCC/C=C\\CCCCCCCCO [Oleyl alcohol]", "Yes"),
    ("CC(C)CCCCCCCCCCCCCCC(=O)O [Isostearic acid]", "Yes"),
]

Just so you know, measured Compatibility with Doxycycline Hyclate for C[Si]1(C)O[Si](C)(C)O[Si](C)(C)O[Si](C)(C)O[Si](C)(C)O1 [Cyclomethicone 5 NF] came out at Yes
